system: MALME-3M melanoma; assay: NCI tumour cell line growth inhibition, 48 h
log10 TGI reference
Heads up, the numbers here are log10 of TGI in µM units.

compound: CC(C)C1=CC23CCC4C(C)(C(=O)O)CCCC4(C)C2CC1C1C(=O)N(c2ccc(Cc4ccc(N5C(=O)C6C7CC8C9(C)CCCC(C)(C(=O)O)C9CCC8(C=C7C(C)C)C6C5=O)cc4)cc2)C(=O)C13 (centres undefined)
targetEntity: MALME-3M melanoma
log10 TGI: 1.48

compound: CN(C)c1ccc(/C=c2/c3ccccc3n3c2c2c([n+]3C)CCCC2)cc1
targetEntity: MALME-3M melanoma
log10 TGI: -0.06

compound: CC1=C(C)CC2C(=O)N(c3cc(C(C)(C)C)ccc3C(C)(C)C)C(=O)C2C1 (centres undefined)
targetEntity: MALME-3M melanoma
log10 TGI: 1.21

compound: NC(=O)/C=C/C(=O)c1c(Cl)cccc1Cl
targetEntity: MALME-3M melanoma
log10 TGI: 0.23

compound: CC(=O)CCn1ncc(Cl)c(Cl)c1=O
targetEntity: MALME-3M melanoma
log10 TGI: 1.56

compound: Cc1n(Cc2ccccc2)c2c([n+]1C)C(=O)c1ccccc1C2=O
targetEntity: MALME-3M melanoma
log10 TGI: -1.24

Query: Quickly give me recorded log10 TGI for COC(=O)c1ccc(/C=C/c2cc(O)ccc2O)cc1
Reply: 0.75

Query: Quickly give me recorded log10 TGI for COC(=O)COc1ccccc1/C=C1\N=C(c2ccccc2)N(c2cc(C(F)(F)F)ccc2Cl)C1=O
Reply: 1.97

Query: Quickly give me recorded log10 TGI for COc1cccc(C2c3cc4c(cc3OC(N3CCCCC3)C2C)OCO4)c1O (centres undefined)
Reply: 1.56

Query: Quickly give me recorded log10 TGI for Cc1cc(Nc2ccc(NC(=O)c3ccc(Nc4ccnc5ccccc45)cc3)cc2)nc(N)n1
Reply: 0.67

Query: Quickly give me recorded log10 TGI for NC(N)=NS(=O)(=O)c1ccc(NNc2c3ccccc3nc3c(C(=O)Nc4ccc(S(=O)(=O)Nc5ncccn5)cc4)cccc23)cc1
Reply: 1.83

Query: Quickly give me recorded log10 TGI for C#CCOc1cccc(-c2ncc3cc(NC(=O)CCl)ccc3n2)c1
Reply: 0.52

Query: Quickly give me recorded log10 TGI for CC(C)CCC1CC2C(=O)N(c3ccccc3)C(=O)C2c2[nH]c3ccccc3c21 (centres undefined)
Reply: 1.18

Query: Quickly give me recorded log10 TGI for O=C(O)C(O)C(O)C(O)C(O)c1nc2ccccc2s1 (centres undefined)
Reply: 1.56

Query: Quickly give me recorded log10 TGI for CO/N=C(\C)c1ccc(Nc2nc3ccccc3c3occc23)cc1
Reply: 1.45

Query: Quickly give me recorded log10 TGI for O=C(Nc1ccc(Br)cc1F)c1cc(F)ccc1O
Reply: 0.18

Query: Quickly give me recorded log10 TGI for COc1cccc(CC(C)=C(c2ccc(OCCN(C)C)cc2)c2ccc(OCCN(C)C)cc2)c1
Reply: 0.02

Entry source: PubChem BioAssay (NCI)
